B1: FAM189A2 (parent)
chain: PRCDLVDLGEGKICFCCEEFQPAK

variants of: B1; assay: protein stability index of a GFP-peptide fusion (GPS, HEK-293T) (PSI 1-6); higher = more stable; conditions: c terminus: a fixed tail appended;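 note: lentivirally expressed fusions sorted by FACS into six bins by GFP to DsRed ratio, PSI derived from sequencing read proportions per bin multiplied by bin number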
readout name: protein stability index

Worked cases, protein stability index given:
PRCDLVDLGRGKICFCCEEFQPAK	2.54
PRCDLVDLGEGKICFCAEEFQPAK	3.34

Pending variant:
Problem: Quote protein stability index reported for `PRCDLVELGEGKICFCCEEFQPAK` please.
Result: 3.05
